experimental_protocol: qHTS Assay for Lipid Storage Modulators in Drosophila S3 Cells;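 on cell number change: cells counted by Cell Tracker Red CMTPX staining in the red channel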
measurement_conditions: BODIPY lipid droplet fluorescence, 18-24 h, cells fed with added oleic acid; measured here: cell count max response
Among all 320,000 compounds or so, about 2,100 (0.66%) were called active. Not shown: some 53% with an inconclusive outcome. What follows is part of a selection rich in actives, with near analogues and random picks from the rest.
quantity_measured: cell number change (%)
Numbers only, in %.

Examples with answers:
{"structure": "Cn1ccs/c1=N\\C(=O)Nc1cccc(Cl)c1", "cell number change (%)": 1.31}
{"structure": "Cc1ccc(-n2nc(C)c(C(=O)N3CCN(C(=O)c4ccco4)CC3)c2-n2cccc2)cc1", "cell number change (%)": -18.3}
{"structure": "COc1cc(CN2CCC(Cc3ccccc3)CC2)c([N+](=O)[O-])cc1OC", "cell number change (%)": 21.3}
{"structure": "O=C(CNc1cccc(S(=O)(=O)N2CCCCCC2)c1)Nc1cccc([N+](=O)[O-])c1", "cell number change (%)": 20.3}

Please report cell number change for every entry that follows.
1. COc1ccc(OCCCC(=O)Nc2cc([N+](=O)[O-])ccc2C)cc1
2. COc1ccc(OCCCC(=O)Nc2cccc([N+](=O)[O-])c2)cc1

1: -3.49; 2: 10.1

Please report cell number change for every entry that follows.
1. COc1ccc(C(=O)NCC2(c3ccccc3)CCOCC2)cc1
2. Cc1ccc([N+](=O)[O-])cc1NC(=O)CCCOc1ccccc1
3. COc1ccc(C(=O)N2CCc3cc(OC)c(OC)cc3C2)cc1OC
4. Cc1ccc(-n2ncc(C(=O)N3CCN(C(=O)c4ccco4)CC3)c2-n2cccc2)cc1

16.9
2.03
-23.8
-13.4

The recorded cell number change for entry Cc1ccc(CN2CCN(C(=O)c3ccco3)CC2)cc1 equals 11.8

###

experimental_protocol: qHTS Assay for Lipid Storage Modulators in Drosophila S3 Cells;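 on cell number change: cells counted by Cell Tracker Red CMTPX staining in the red channel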
measurement_conditions: BODIPY lipid droplet fluorescence, 18-24 h, cells fed with added oleic acid; measured here: cell count max response
About 2,100 (0.66%) of roughly 320,000 compounds were called active. About 53% were inconclusive and are not listed. This is one part of a sample in which actives are shown more often than they occur.
quantity_measured: cell number change
# number then unit; no other words

Please report cell number change for every entry that follows.
1. O=C(O)CCc1ccc(-c2cccs2)n1NC(=O)c1ccc(O)cc1
2. COc1cc(NC(=O)N[C@H](C(=O)O)C(C)C)cc(OC)c1
3. COC(=O)[C@@H](NC(=O)Nc1ccc(OC)cc1)C(C)C
4. Cn1c(C(=O)NCc2ccccc2)cc2oc3ccccc3c21
5. COc1ccc(CCNC(=O)CN(C)S(=O)(=O)c2cccc3nsnc23)cc1OC

1. 6.61%
2. -13.1%
3. -11.6%
4. 12.4%
5. 0.234%

Please report cell number change for every entry that follows.
1. Nc1c(C(=O)NCCc2ccccc2)nnn1Cc1ccc(Br)cc1F
2. Brc1ccccc1CN1CCC(N2CCCCC2)CC1
3. COc1ccc(NC(=O)c2cc(Cl)ccc2Cl)c([N+](=O)[O-])c1
4. O=C(NCc1nc2ccccc2[nH]1)C1=C[C@H](c2csc3ccccc23)C[C@H](OCc2ccc(CO)cc2)O1
5. c1ccc(CN2CCC(N3CCC(N4CCCCCC4)CC3)CC2)cc1
6. Cc1noc(C)c1CSc1nnc(-c2ccccc2)o1
7. Cc1[nH]nc(SCC(=O)N2CCCC2)c1[N+](=O)[O-]

["2.88%", "-5.87%", "-6.66%", "13.4%", "-20.6%", "4.76%", "-4.82%"]

###

experimental_protocol: qHTS Assay for Lipid Storage Modulators in Drosophila S3 Cells;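 on cell number change: cells counted by Cell Tracker Red CMTPX staining in the red channel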
measurement_conditions: BODIPY lipid droplet fluorescence, 18-24 h, cells fed with added oleic acid; measured here: cell count max response
Among all 320,000 compounds or so, about 2,100 (0.66%) were called active. Roughly 53% stayed inconclusive and do not appear here. For the sample, actives were picked, then their nearest neighbours and some compounds at random.
Exercise: for every item that follows, state its recorded cell number change.
Give bare numbers, in %.

{"compound": "Cc1cc(C(=O)CCl)c(C)n1CCc1ccc(F)cc1", "endpoint_value": -8.52}
{"compound": "CCSc1nnc2nc3[nH]c4c(C)cccc4c3nn12", "endpoint_value": 0.802}
{"compound": "CCSc1nnc2c(n1)[nH]c1c(C)cccc12", "endpoint_value": -28.9}
{"compound": "COc1ccc(C(=O)Oc2cc(/C=N/NS(=O)(=O)c3ccccc3)ccc2OC)cc1", "endpoint_value": -2.45}
{"compound": "Cc1cc(C(=O)CN2C(=O)C(=O)N(C3CCCC3)C2=O)c(C)n1CCc1ccc(F)cc1", "endpoint_value": -15.3}
{"compound": "O=C1CCCN1CCNC(=S)Nc1ccccc1", "endpoint_value": -13}

Please report cell number change for every entry that follows.
1. CC(C)(C)c1cc(C(=O)NNc2cc(C(F)(F)F)ccc2Cl)n(Cc2ccccc2)n1
2. COc1ccccc1NNC(=O)c1cc(C(C)(C)C)nn1Cc1ccccc1
3. Cc1ccc(S(=O)(=O)c2cc3c(=O)n4cc(C)ccc4nc3n(CC3CCCO3)c2=N)cc1 (stereo not given)
4. Cc1cc(C(=O)CN2C(=O)C(=O)N(Cc3ccccc3)C2=O)c(C)n1Cc1ccc(F)cc1

1. -27.1
2. 13.3
3. -5.73
4. -8.57

###

experimental_protocol: qHTS Assay for Lipid Storage Modulators in Drosophila S3 Cells
measurement_conditions: BODIPY lipid droplet fluorescence, 18-24 h, cells fed with added oleic acid; series mostly up to 46.1 µM
The whole screen tested about 320,000 compounds, of which about 2,100 (0.66%) were called active. Inconclusive results (about 53%) are left out. The call rests on the fitted dose curve; in most records, active means well fitted inhibition curve with a large enough effect in the signal ratio, with a control signal flat (not every such curve was filed as active); inconclusive means small, poorly fitted or top-dose-only effect, or effect the other way, or a change in a side signal; inactive means flat fitted curve, though single readings scatter; the % refers to the signal ratio. The entries come from a sample that favours actives as a whole.
Output constraint: value belongs to active, inactive

Worked cases, answers included:
{"compound": "COc1ccc(NC(=O)CN(C)C(=O)c2cn(-c3ccccc3)nc2-c2ccc(F)cc2)cc1", "assigned_class": "inactive"}
{"compound": "CCOC(=O)C1CCCN(S(=O)(=O)c2ccc(Br)s2)C1 (configuration not stated)", "assigned_class": "inactive"}

For CC(=O)c1ccc(S(=O)(=O)N2CCN(CC(=O)Nc3ccccc3C(=O)NC3CC3)CC2)cc1 , what call appears in the results of this test?
active

For CCCS(=O)(=O)N1CCCC(C(=O)Oc2ccc(Cl)cc2)C1 (configuration not stated) , what call appears in the results of this test?
inactive

For C/C(=N\NC(=O)c1c(C)nc2ccccn12)c1ccco1 , what call appears in the results of this test?
inactive

For CN(CC(=O)Nc1ccc(F)cc1)C(=O)c1ccc(N2C(=O)CCC2=O)cc1 , what call appears in the results of this test?
inactive

For CN(CC(=O)Nc1c(Cl)cccc1Cl)C(=O)c1ccncc1 , what call appears in the results of this test?
inactive

For O=C(CN1CCN(S(=O)(=O)c2ccccc2)CC1)Nc1ccccc1C(=O)c1ccccc1 , what call appears in the results of this test?
inactive

For Cc1nc(Nc2ccccc2Br)c2nnn(Cc3ccccc3)c2n1 , what call appears in the results of this test?
inactive

For CN(CC(=O)Nc1cccc(F)c1)C(=O)c1cccc2ccccc12 , what call appears in the results of this test?
active

###

Exercise: for every item that follows, state its recorded cell number change.
experimental_protocol: qHTS Assay for Lipid Storage Modulators in Drosophila S3 Cells;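 on cell number change: cells counted by Cell Tracker Red CMTPX staining in the red channel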
measurement_conditions: BODIPY lipid droplet fluorescence, 18-24 h, cells fed with added oleic acid; measured here: cell count max response
In all, about 320,000 compounds went through this assay and about 2,100 (0.66%) were called active. About 53% were inconclusive and are not listed. Only a selection was taken, and actives are over-represented in it overall.
One number for each entry, in %.

Examples with answers:
{"compound": "FC(F)(F)c1ccnc(N2CCN(Cc3cnc(-c4ccccc4)[nH]3)CC2)c1", "cell number change [%]": 15}
{"compound": "COc1ccc(N(CC(=O)NCc2ccc3c(c2)OCO3)C(=O)c2csnn2)cc1", "cell number change [%]": -14.1}
{"compound": "O=C(NCCCN1CCCCC1)C1CCN(S(=O)(=O)N2CCC3(CC2)OCCO3)CC1", "cell number change [%]": -12.2}
{"compound": "Cn1c2c(c3ccccc31)CC/C2=N\\O", "cell number change [%]": 17}
{"compound": "CCC(=O)Nc1ccc(NC(=O)CSc2nnnn2-c2ccc3c(c2)OCCO3)cc1", "cell number change [%]": 5.29}
{"compound": "Cc1ccccc1OCCNc1ccc(C(F)(F)F)cc1[N+](=O)[O-]", "cell number change [%]": -21}

Please report cell number change for every entry that follows.
1. CCOC(=O)c1cccc(NC(=O)C(NS(=O)(=O)c2ccc3c(c2)CCN3C(C)=O)C(C)C)c1 (stereo not given)
2. CC(=O)Nc1ccc2c(c1)nc(CCN1CCN(c3ccccn3)CC1)n2C
3. COc1cc(CN(C(=S)NCC(=O)NC2CC2)C2CCCC2)cc(OC)c1OC
4. Cc1ccc(S(=O)(=O)Nc2ccc3c(c2)nc(CCN2CCN(c4ccccn4)CC2)n3C)cc1

1. 9.06
2. -2.13
3. 4.91
4. 24.4
